Measured Bliss excess accompanies every entry in the list below.
Tested on: LU-165 (Small Cell Lung Carcinoma)
Method: Bliss excess, mean over the matrix (fraction); higher = more synergy;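 also: after 72 h of two-drug dosing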
Endpoint Name: Bliss excess

>>> test_value("Cc1c2c(nn1C)CSCc1cc(n(C)n1)CSc1cc(c3ccccc3c1)OCCCc1c(C(=O)O)n(C)c3c-2c(Cl)ccc13 [AZD5991] + C1CN(CCC1(C(=O)N[C@@H](CCO)C2=CC=C(C=C2)Cl)N)C3=NC=NC4=C3C=CN4 [Capivasertib] (first compound max 1 µM, 7x7, partner max 3 µM)")
0.0034
>>> test_value("CS(=O)(=O)CCNCc1ccc(-c2ccc3ncnc(Nc4ccc(OCc5cccc(F)c5)c(Cl)c4)c3c2)o1 [Lapatinib] + NC1(c2ccc(-c3nc4ccn5c(=O)[nH]nc5c4cc3-c3ccccc3)cc2)CCC1 [MK-2206] (first compound max 10 µM, 7x7, partner max 10 µM)")
-0.0522
>>> test_value("CC1(C)CCC(CN2CCN(c3ccc(C(=O)NS(=O)(=O)c4ccc(NCC5CCOCC5)c([N+](=O)[O-])c4)c(Oc4cnc5[nH]ccc5c4)c3)CC2)=C(c2ccc(Cl)cc2)C1 [Venetoclax] + C=CCn1c(=O)c2cnc(Nc3ccc(N4CCN(C)CC4)cc3)nc2n1-c1cccc(C(C)(C)O)n1 [AZD1775] (first compound max 1 µM, partner max 1 µM)")
-0.0506

---

Test system: NCI-H2087 (Lung Adenocarcinoma)
Method: Bliss excess, mean over the matrix (fraction); higher = more synergy
Endpoint Name: Bliss excess

>>> test_value("Cn1cnc2c(F)c(Nc3ccc(Br)cc3Cl)c(C(=O)NOCCO)cc21 [Selumetinib] + C=CCn1c(=O)c2cnc(Nc3ccc(N4CCN(C)CC4)cc3)nc2n1-c1cccc(C(C)(C)O)n1 [AZD1775] (first compound max 10 µM, partner max 1 µM)")
0.0084
>>> test_value("Cc1cc2ncnn2cc1Nc1ncc2c(n1)n(C1CCOCC1)c(=O)n2C [AZD7648] + CCN(CCO)CCCOc1ccc2c(Nc3cc(CC(=O)Nc4cccc(F)c4)[nH]n3)ncnc2c1 [AZD2811] (first compound max 10 µM, 7x7, partner max 1 µM)")
-0.0209

---

Overview of recorded Bliss excess for various compounds
Tested on: EB2 (Burkitt's Lymphoma)
Method: Bliss excess, mean over the matrix (fraction); higher = more synergy
Endpoint Name: Bliss excess

>>> test_value("C=CCn1c(=O)c2cnc(Nc3ccc(N4CCN(C)CC4)cc3)nc2n1-c1cccc(C(C)(C)O)n1 [AZD1775] + CCc1c2c(nc3ccc(O)cc13)-c1cc3c(c(=O)n1C2)COC(=O)[C@]3(O)CC [SN-38] (first compound max 1 µM, partner max 0.3 µM)")
-0.0507
>>> test_value("CN(CCO)CC[C@H](CSc1ccccc1)Nc1ccc(S(=O)(=O)NC(=O)c2ccc(N3CCC([C@@H](O)c4ccccc4-c4ccc(Cl)cc4)CC3)cc2)cc1S(=O)(=O)C(F)(F)F [AZD4320] + C1CN(CCC1(C(=O)N[C@@H](CCO)C2=CC=C(C=C2)Cl)N)C3=NC=NC4=C3C=CN4 [Capivasertib] (first compound max 1 µM, 7x7, partner max 3 µM)")
0.0549
>>> test_value("O=C(c1cc(Cc2n[nH]c(=O)c3ccccc23)ccc1F)N1CCN(C(=O)C2CC2)CC1 [Olaparib] + COc1nnc2ccc(N3CCC(c4ccc(OCCN5CCN(C)C(=O)[C@H]5C)cc4)CC3)nn12 [AZD5153] (first compound max 10 µM, 7x7, partner max 1 µM)")
-0.0329
